assay-overview: in vivo
condition: mouse, in vivo, iv, mice; intravenous; isotonic aqueous solution; read-out: DL 50 intravenous
Counter-ions that a name gives are not always drawn.
readout: LD50 (mg/kg)
Numbers only, in mg/kg.

Would you please look over these solved cases?
O=C(NCCN1CCCC1)N1c2ccccc2Sc2ccccc21 [F 1461, hydrochloride]
26
CCOC(C(=O)NCCN1CCCC1)(c1ccccc1)c1ccccc1 [F 1460, hydrochloride]
40
CCC(C(=O)NCCN1CCCC1)c1ccccc1 (stereo not shown) [F 1419, hydrochloride]
76

[Q] Answer with the recorded LD50 for the compound listed here: O=C(NCCN1CCCC1)C(c1ccccc1)c1ccccc1 [F 1459, hydrochloride]
[A] 48

###

assay-overview: Solubility characteristics
Assay type: physicochemical
condition: ethanol; in words
Where a name gives a salt, the structure may show the parent alone.
readout: Solubility in ethanol

Would you please look over these solved cases?
O=C(NCCN1CCCC1)C1c2ccccc2-c2ccccc21 [F 1532, hydrochloride]
very soluble
COc1cc(C(=O)NCCN2CCCC2)cc(OC)c1OC [F 1538, hydrochloride]
soluble
O=C(O)c1ccccc1C(=O)NCCN1CCCC1
very soluble
O=C(C=Cc1ccccc1)NCCN1CCCC1 [F 1542, N(2'-pyrrolidino-ethyl)cinnamide, HCl]
very soluble

The following compounds each have a reported value; give each one's Solubility in ethanol.
1. CC(C)(Oc1ccccc1)C(=O)NCCN1CCCC1 [F 1540, hydrochloride]
2. O=C(COc1ccc(Cl)cc1)NCCN1CCCC1 [F 1539, hydrochloride]

[A]
1: soluble; 2: soluble

###

assay-overview: Solubility characteristics
Format: physicochemical
condition: propylene glycol; in words
Counter-ions that a name gives are not always drawn.
readout: Solubility in propylene glycol

Would you please look over these solved cases?
O=C(COc1ccc(Cl)cc1)NCCN1CCCC1 [F 1539, hydrochloride]
soluble
COc1cc(C(=O)NCCN2CCCC2)cc(OC)c1OC [F 1538, hydrochloride]
soluble
O=C(O)c1ccccc1C(=O)NCCN1CCCC1 [F 1537]
very soluble
O=C(C=Cc1ccccc1)NCCN1CCCC1 [F 1542, N(2'-pyrrolidino-ethyl)cinnamide, HCl]
very soluble
O=C(NCCN1CCCC1)C1c2ccccc2-c2ccccc21 [F 1532, hydrochloride]
very soluble

// next item, Solubility in propylene glycol requested
[Q] Answer with the recorded Solubility in propylene glycol for the compound listed here: CC(C)(Oc1ccccc1)C(=O)NCCN1CCCC1 [F 1540, hydrochloride]
[A] soluble

###

assay-overview: in vivo
condition: mouse, in vivo, po, mice; oral; isotonic aqueous solution; read-out: DL 50 oral
Counter-ions that a name gives are not always drawn.
For each of the compounds below, state its LD50.
Answers are plain numbers, in mg/kg.

Would you please look over these solved cases?
CC(C)(Oc1ccc(Cl)cc1)C(=O)NCCN1CCCC1 [F 1541, hydrochloride]
562
O=C(COc1ccc(Cl)cc1)NCCN1CCCC1 [F 1539, hydrochloride]
1000
O=C(O)c1ccccc1C(=O)NCCN1CCCC1 [F 1537]
1000
O=C(C=Cc1ccccc1)NCCN1CCCC1 [F 1542, N(2'-pyrrolidino-ethyl)cinnamide, HCl]
1000
CC(C)(Oc1ccccc1)C(=O)NCCN1CCCC1 [F 1540, hydrochloride]
1000

The following compounds each have a reported value; give each one's LD50.
1. COc1cc(C(=O)NCCN2CCCC2)cc(OC)c1OC [F 1538, hydrochloride]
2. CCOC(C(=O)NCCN1CCCC1)(c1ccccc1)c1ccccc1 [F 1460, hydrochloride]
3. CCC(C(=O)NCCN1CCCC1)c1ccccc1 (stereo not drawn) [F 1419, hydrochloride]
4. O=C(NCCN1CCCC1)C(c1ccccc1)N1CCCCC1 (stereo not drawn) [F 1533]
5. O=C(NCCN1CCCC1)N1c2ccccc2Sc2ccccc21 [F 1461, hydrochloride]
6. O=C(NCCN1CCCC1)C1c2ccccc2Oc2ccccc21 [F 1534, hydrochloride]
7. O=C(NCCN1CCCC1)C1c2ccccc2-c2ccccc21 [F 1532, hydrochloride]

[A]
1. 562
2. 750
3. 660
4. 750
5. 560
6. 750
7. 178
